Source of measurements: patent US8211929B2

target: (Homo sapiens, UniProt P08069); construct: human IGF1R kinase domain residues M954-C1367; made in house; host or cells: baculovirus expression (insect cells); assay: IGF1R kinase assay (LCCA), IGF 0P; type: biochemical; details: IGF1R kinase LCCA assay
pIC50: −log10 of the molar value.
READOUT: pIC50

MOLECULE	READING
Brc1cnc(NCC2CCNCC2)nc1Nc1cc(C2CC2)n[nH]1 [Example 198]	< 5.30
Fc1c(Cl)cccc1Nc1ncc(Br)c(Nc2cc(C3CC3)n[nH]2)n1 [Example 241]	5.30 to 6.30
Brc1cnc(Nc2ccc3c(c2)OCCO3)nc1Nc1cc(C2CC2)n[nH]1 [Example 104]	6.30 to 7.30
Cc1cc(Nc2cc(C)on2)nc(Nc2ccc(N3CCOCC3)cc2)n1 [Example 295]	< 5.30
CN1CCN(c2ccc(CNc3ncc(Br)c(Nc4cc(C5CC5)n[nH]4)n3)cc2)CC1 [Example 186]	5.30 to 6.30
Cc1cc(Nc2ccccc2)nc(Nc2ccc(N3CCOCC3)cc2)n1 [Example 567]	5.30 to 6.30
CCN(CC)CCNC(=O)c1ccc2cc(Nc3nc(C)cc(Nc4cc(C5CC5)n[nH]4)n3)ccc2c1 [Example 59]	6.30 to 7.30
Brc1cnc(Nc2ccc3c(c2)CCC3)nc1Nc1cc(C2CC2)[nH]n1 [Example 180]	5.30 to 6.30
Nc1ncnc2c1c(-c1cccc(OCc3ccccc3)c1)cn2CC1CC2CN(C(=O)OCc3ccccc3)CC2C1 (centres unmarked) [Example 356]	< 5.30
Clc1ccccc1Nc1nc(Nc2cc(C3CC3)n[nH]2)c2nc[nH]c2n1 [Example 210]	6.30 to 7.30
Clc1ccc(-c2cc(CNc3ncc(Br)c(Nc4cc(C5CC5)[nH]n4)n3)on2)cc1 [Example 275]	5.30 to 6.30
Brc1cnc(NCc2ccco2)nc1Nc1cc(C2CC2)n[nH]1 [Example 138]	6.30 to 7.30
Brc1cnc(Nc2ccc(OCc3ccccc3)cc2)nc1Nc1cc(C2CC2)n[nH]1 [Example 320]	< 5.30
Nc1nc(C2CC2)nn1-c1nc(Nc2ccc(N3CCOCC3)cc2)ncc1Br [Example 284]	< 5.30
O=C(NCCN1CCCC1)c1cc(Nc2cc(C3CC3)[nH]n2)nc(NCc2cc(-c3ccccc3)no2)n1 [Example 521]	6.30 to 7.30
Cc1cc(Nc2cc(C3CC3)n[nH]2)nc(NCc2nc(C(=O)NCCc3cccc(Cl)c3)cs2)n1 [Example 570]	5.30 to 6.30
Clc1ccccc1Nc1ncc(Cl)c(Nc2cc(C3CC3)[nH]n2)n1 [Example 101]	6.30 to 7.30

###

molecular target: IGF 3P (Homo sapiens, UniProt P08069); construct: human IGF1R kinase domain residues M954-C1367; made in house; host or cells: baculovirus expression (insect cells); assay: IGF1R kinase assay (LCCA), IGF 3P; assay type: biochemical; conditions: IGF1R kinase LCCA assay
Sequence (P08069 954-1367): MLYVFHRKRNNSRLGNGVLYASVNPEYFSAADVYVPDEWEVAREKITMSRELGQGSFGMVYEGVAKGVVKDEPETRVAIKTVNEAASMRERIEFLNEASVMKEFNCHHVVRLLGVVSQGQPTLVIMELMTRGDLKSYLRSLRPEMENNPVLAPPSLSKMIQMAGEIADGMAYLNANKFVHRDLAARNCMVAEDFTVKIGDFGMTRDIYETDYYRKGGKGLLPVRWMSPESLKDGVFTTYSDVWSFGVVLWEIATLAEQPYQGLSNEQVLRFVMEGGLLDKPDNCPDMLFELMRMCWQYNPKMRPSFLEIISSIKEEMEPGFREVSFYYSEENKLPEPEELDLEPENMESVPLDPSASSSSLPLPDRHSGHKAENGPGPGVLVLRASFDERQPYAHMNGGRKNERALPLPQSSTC
pIC50: −log10 of the molar value.
READOUT: pIC50

COMPOUND	READOUT	READING
CSc1ccccc1Nc1ncc(Br)c(Nc2cc(C3CC3)n[nH]2)n1	pIC50	6.30 to 7.30
Cc1cnc(Nc2ccc(N(C)C)cc2)nc1Nc1cc(C2CC2)n[nH]1	pIC50	5.30 to 6.30
CCN(CC)CCNC(=O)c1ccc(Nc2nccc(Nc3cc(C4CC4)n[nH]3)n2)cc1	pIC50	5.30 to 6.30
CC(C)c1cc(CNc2nc(NCCN3CCN(C)CC3)cc(Nc3cc(C4CC4)[nH]n3)n2)on1	pIC50	> 7.30
Cc1cc(Nc2cc(C3CC3)[nH]n2)nc(NCc2cc(-c3ccccn3)no2)n1	pIC50	6.30 to 7.30
CCCCNc1cc(C)nc(Nc2ccc(N3CCOCC3)cc2)n1	pIC50	< 5.30
Nc1ncnc2c1c(-c1ccc(NC(=O)C3(C(=O)Nc4ccc(F)cc4)CC3)cc1)cn2C1CC(CN2CCCC2)C1 (centres unmarked)	pIC50	5.30 to 6.30
Cc1cnc(Nc2ccc(C(=O)NC3CCN(C)CC3)cc2)nc1Nc1cc(C2CC2)n[nH]1	pIC50	5.30 to 6.30
